Molecular target: hLPAR1 (human lysophosphatidic acid receptor 1, Accession No.: NM_001401.4) (Homo sapiens, UniProt Q92633)
Sequence (Q92633 whole entry): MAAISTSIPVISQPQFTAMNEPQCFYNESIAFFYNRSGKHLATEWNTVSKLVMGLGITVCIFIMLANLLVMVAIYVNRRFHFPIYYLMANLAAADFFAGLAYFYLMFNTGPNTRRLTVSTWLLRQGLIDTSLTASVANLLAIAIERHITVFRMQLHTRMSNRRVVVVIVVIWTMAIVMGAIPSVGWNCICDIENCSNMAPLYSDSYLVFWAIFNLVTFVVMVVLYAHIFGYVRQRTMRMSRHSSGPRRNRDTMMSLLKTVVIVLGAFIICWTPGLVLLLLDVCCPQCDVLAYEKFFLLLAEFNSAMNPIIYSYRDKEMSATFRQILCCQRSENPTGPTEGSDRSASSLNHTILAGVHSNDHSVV
Assay: cell-based
Conditions: Table 1; FLIPR method, CHO-K1 cells overexpressing hLPAR1; read-out: LPAR1 inhibitory activity IC50
Protocol: The antagonist properties of the compounds in the present disclosure were determined using the FLIPR (Fluorometric Imaging Plate Reader) method in CHO-K1 cells (Chinese Hamster Ovary cells K1, ATCC) overexpressing hLPAR1 (human lysophosphatidic acid receptor 1, Accession No.: NM_001401.4). […]
test readout: pIC50
pIC50 is a log-scale quantity: -log10 of the concentration expressed in molar.

compound: Cc1nc(-c2nnn(C)c2COC(=O)N(C)CC2CCC2)ccc1C#CC1CC(F)(F)CC1C(=O)O (racemic) [compound 362]
result value: 7.69
--
compound: CCC[C@@H](C)OC(=O)Nc1c(-c2ccc(C#CC3(CC(=O)O)CC(OC)C3)c(C)n2)nnn1C (some centres unmarked) [compound 278]
result value: 7.42
--
compound: CCC(F)(F)[C@@H](C)OC(=O)Nc1c(-c2ccc(C#C[C@@H]3CC[C@H]3C(=O)O)c(C)n2)nnn1C (mixture of isomers) [212-A]
result value: 7.38
--
compound: Cc1nc(-c2nnn(C)c2NC(=O)O[C@H](C)CC(C)(F)F)ccc1C#C[C@@H]1CC(F)(F)C[C@H]1C(=O)O [compound 247]
result value: 7.99
--
compound: Cc1nc(-c2nnn(C)c2NC(=O)O[C@H](C)c2ccccc2)ccc1C#C[C@@H]1CCCC[C@H]1C(=O)O (mixture of isomers) [027-B]
result value: 7.31

Exam item: Return value of pIC50 for input Cc1nc(-c2cnn(C)c2NC(=O)O[C@H](C)c2ccccc2Cl)ccc1C#CC1(CC(=O)O)CC1 [compound 005] , no commentary.
Marked response: 7.65

Exam item: Return value of pIC50 for input CC(OC(=O)Nc1c(-c2ccc(C#CC3(CC(=O)O)CC3)c(F)n2)nnn1C)C12CC(C1)C2 (centres unmarked) [237-A] , no commentary.
Marked response: 7.46

Exam item: Return value of pIC50 for input Cc1nc(-c2nnn(C)c2CNC(=O)OCCC(C)C)ccc1C#CC1(CC(=O)O)CC1 [compound 253] , no commentary.
Marked response: 7.14

----------
assay: Pharmacokinetic study in rats (oral gavage and tail vein injection, plasma LC-MS/MS); format: in vivo; details: male, SD, rat, iv, 1 mg/kg
test readout: half-life (h)
Value expressed in h; do not type the unit.

compound: CCOC1CC(C#Cc2ccc(-c3nnn(C)c3NC(=O)O[C@H](C)C(F)(F)CC)nc2C)(CC(=O)O)C1 (stereo partly drawn) [compound 429]
half-life / h: 6.87
--
compound: Cc1nc(-c2nnn(C)c2NC(=O)O[C@H](C)c2ccccc2)ccc1C#C[C@@H]1CC[C@H]1C(=O)O [compound 309]
half-life / h: 4.36
--
compound: Cc1nc(-c2nnn(C)c2NC(=O)O[C@H](C)CC(C)(C)F)ccc1C#C[C@@H]1CCC[C@H]1C(=O)O (mixture of isomers) [244-B]
half-life / h: 5.05
--
compound: Cc1nc(-c2nnn(C)c2CNC(=O)OCCC(C)C)ccc1C#CC1(CC(=O)O)CC1 [compound 253]
half-life / h: 4.06
--
compound: C[C@H](C1CC1)N(C)C(=O)OCc1c(-c2ccc(C#CC3(CC(=O)O)CC3)cn2)nnn1C [compound 002]
half-life / h: 7.18

In the following, a different compound is considered.
Exam item: Return value of half-life for input CC(OC(=O)Nc1c(-c2ccc(C#CC3(CC(=O)O)CC3)c(F)n2)nnn1C)C12CC(C1)C2 (stereo not drawn) [237-A] , no commentary.
Marked response: 5.19
